# test system: Human LPA3 (Homo sapiens)
# Construct: The full-length cDNA fragment for human LPA3 was obtained by PCR from the vector; expressed in transfected cells; cDNA from the Missouri S&T cDNA Resource Center
# Sequence (Q9UBY5 1-353): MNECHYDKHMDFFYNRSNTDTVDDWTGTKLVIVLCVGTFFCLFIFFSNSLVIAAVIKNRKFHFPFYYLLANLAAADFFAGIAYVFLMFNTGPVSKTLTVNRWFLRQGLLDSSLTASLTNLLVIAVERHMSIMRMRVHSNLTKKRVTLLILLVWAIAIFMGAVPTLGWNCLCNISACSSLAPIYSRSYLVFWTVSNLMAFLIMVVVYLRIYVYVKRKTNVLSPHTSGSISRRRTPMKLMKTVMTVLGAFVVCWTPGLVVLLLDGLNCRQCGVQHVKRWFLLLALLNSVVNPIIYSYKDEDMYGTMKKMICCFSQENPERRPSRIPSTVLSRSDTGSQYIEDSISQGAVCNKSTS
# assay explanation: LPA3 calcium flux assay
# Type: cell-based
# condition details: CHO cells expressing human LPA3, 10 nM LPA; read-out: HLPA3 Ca Flux IC50
pIC50: −log10 of the molar value.
parameter: pIC50

Here is how some compounds turned out for pIC50.
| compound | parameter | value |
| --- | --- | --- |
| C[C@@H](OC(=O)Nc1cnoc1-c1ccc(-c2ccc(C3(C(=O)O)CC3)cc2)cc1)c1ccccc1 | pIC50 | 5.00 to 6.00 |
| COc1cc(-c2ccc(C3(C(=O)O)CC3)cc2)ccc1-c1onc(C)c1NC(=O)O[C@H](C)c1cccc(C(F)(F)F)c1 | pIC50 | > 6.52 |
| COc1cc(-c2ccc(C3(C(=O)NS(C)(=O)=O)CC3)cc2)ccc1-c1onc(C)c1NC(=O)O[C@H](C)c1cccc(C(F)(F)F)c1 | pIC50 | 6.00 to 6.52 |
| Cc1noc(-c2ccc(-c3ccc(C4(C(=O)O)CC4)cc3)cc2)c1NC(=O)OC(C)c1cccc(C#N)c1 (stereo not drawn) | pIC50 | 5.00 to 6.00 |

Given the compound Cc1noc(-c2ccc(-c3ccc(C4(C(=O)NS(=O)(=O)c5ccccc5)CC4)cc3)cc2)c1NC(=O)O[C@H](C)c1ccccc1 , what is its reported pIC50?
5.00 to 6.00

Try this compound too: CCc1noc(-c2ccc(-c3ccc(C4(C(=O)O)CC4)cc3)cc2)c1NC(=O)O[C@H](C)c1cccc(C(F)(F)F)c1
> 6.52

---

# test system: Human LPA3 (Homo sapiens)
# Construct: The full-length cDNA fragment for human LPA3 was obtained by PCR from the vector; cDNA from the Missouri S&T cDNA Resource Center
# Sequence (Q9UBY5 1-353): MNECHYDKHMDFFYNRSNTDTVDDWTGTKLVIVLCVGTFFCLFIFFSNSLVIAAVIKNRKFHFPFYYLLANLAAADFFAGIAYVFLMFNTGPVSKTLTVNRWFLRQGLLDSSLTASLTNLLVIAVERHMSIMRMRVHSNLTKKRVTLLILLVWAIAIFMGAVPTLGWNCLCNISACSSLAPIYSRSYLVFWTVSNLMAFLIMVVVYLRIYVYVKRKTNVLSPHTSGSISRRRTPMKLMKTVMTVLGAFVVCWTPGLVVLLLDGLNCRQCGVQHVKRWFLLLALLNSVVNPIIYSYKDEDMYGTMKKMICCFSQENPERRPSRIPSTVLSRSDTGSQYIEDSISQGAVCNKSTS
# assay explanation: LPA3 calcium flux assay
# condition details: CHO cells expressing human LPA3, 10 nM LPA; read-out: HLPA3 Ca Flux IC50
parameter: IC50

Here is how some compounds turned out for IC50.
| compound | value |
| --- | --- |
| Cc1noc(-c2ccc(-c3ccc(C4(C(=O)O)CC4)cc3)cc2)c1NC(=O)O[C@H](C)c1ccc(C#N)cc1 | 1000 to 10000 nM |
| Cc1noc(-c2ccc(-c3ccc(C4(C#N)CC4)cc3)cc2)c1NC(=O)O[C@H](C)c1ccccc1 | > 10000 nM |
| Cc1noc(-c2ccc(-c3ccc(C4(C(=O)O)CC4)cc3)cc2)c1NC(=O)OC(C)c1cccc(Cl)c1 (stereo not shown) | 300 to 1000 nM |

Proceed to the following item.
What measured IC50 is associated with Cc1noc(-c2ccc(-c3ccc(C4(C(=O)O)CC4)cc3)cc2)c1NC(=O)OC(C)C1=C(Cl)CCCC1 (stereo not shown) on Human LPA3 (Homo sapiens)?
< 300 nM

Origin of measurements: patent US8273780B2
